# subject_of_test: erythrocytes infected with P. falciparum field isolate 9605
# test_description: flow cytometry, staining of IEs
Exercise: state measured % parasite recognition for each of the binders provided.
// units = %; emit number, no label

Item MGD35 (antibody) VH: QVQLQESGPGLVKPSGTLSLTCAVSGASISSINWWSWVRQTPEKGLEWIGQIHHNGSTNYNPSLKSRVAISVDKSKNQFSLKLTSFTAADTAVYYCATASSLKSQRDTNLPRPSLSAEPGTVIPLGSPVTFVCRGPVGVHTFRLERAGRSTYNDTEDVSHPSPSESEARFRIDSVSEGNAGPYRCVYYKSSKWSEESYCLDLLVKTEDVTWARPQPQLDPRACPQGDLRISTDFYYMDVWGKGTTVTVSS VL: AIRMTQSPSSLSASTGDRVTITCRTSQAIGTYLAWYQQNPGKAPNLLIYNASTLQSGVPSRFSASGSGTDFTLTISGLQSDDFVTYFCQHYYNYPPAFGQGTRLEIQ has what recorded % parasite recognition? 3.6

Item MGD41 (antibody) VH: EVQLVESGPGLVKPSGTLSVTCTISGGSINTDKWWTWVRQPPGKGLEWVGEVLHTGSTNYNPSLRGRVTISVDKSKNQFSLRLSSVTAADTAVYYCATISTLRPQRDIEDLPRPSLSAEPGTVVPLGSHVTFVCRGPVGVQTFRLERESRSTYNDTEDVSQPSPFESEARFRIDSVSEGNAGPYRCIYYKSPKWSDQSDYVELLVKGEDVTWAPPQSQLAPRACPQGELRTSTDIFSMNVWGKGTTVTVSS VL: AIRMTQSPSSLSAFTGDRVTISCRASQDIGNYLDWYHQKPGRAPKLLIHGASTLLTGVPSRFSGSGSGTDFTLNITCLQSGDFGIYYCLQYYSSPPAFGPGTRLEIK has what recorded % parasite recognition? 17.2
